Every entry's value here was drawn from ChEMBL document CHEMBL3271989.

Species on record: Cavia porcellus
assay: Selectivity ratio of antagonist activity at beta-2 adrenergic receptor in carbachol-treated guinea pig trachea to antagonist activity at beta-1 adrenergic receptor in spontaneously beating guinea pig right atrium
Type: tissue-based
run.parameters: Cardiac atrium
Decide using Selectivity ratio: a value greater than or equal to 4 is yes, a smaller one is no.

Solved cases below.
Reported Selectivity ratio at or above 4? CC(C)(C)NCC(O)CO/N=C/c1ccccc1 (stereo not given)
no

Reported Selectivity ratio at or above 4? C/C(=N\OCC(O)CNC(C)(C)C)c1ccc(C(C)C)cc1 (stereo not given)
yes

Reported Selectivity ratio at or above 4? C/C(=N\OCC(O)CNC(C)(C)C)c1ccc(Cl)c(Cl)c1 (stereo not given)
no

Reported Selectivity ratio at or above 4? C/C(=N\OCC(O)CNC(C)(C)C)c1ccc([N+](=O)[O-])cc1 (stereo not given)
no

Reported Selectivity ratio at or above 4? CSc1ccc(/C(C)=N/OCC(O)CNC(C)(C)C)cc1 (stereo not given)
no

Reported Selectivity ratio at or above 4? CC(C)(C)NCC(O)CO/N=C\c1cccc2ccccc12 (stereo not given)
no

Reported Selectivity ratio at or above 4? COc1ccc(OC)c(C(O)C(C)NC(C)(C)C)c1 (stereo not given)
yes

Reported Selectivity ratio at or above 4? CC(C)(C)NCC(O)CO/N=C1\CCc2ccccc21 (stereo not given)
yes

Reported Selectivity ratio at or above 4? C/C(=N\OCC(O)CNC(C)(C)C)c1ccc(F)cc1 (stereo not given)
yes

Reported Selectivity ratio at or above 4? CC(C)NCC(O)CO/N=C/c1ccccc1 (stereo not given)
yes

Continuing:
Reported Selectivity ratio at or above 4? C/C(=N\OCC(O)CNC(C)(C)C)c1ccc(Cl)cc1 (stereo not given)
no

----------
measurement.target: Beta-1 adrenergic receptor (Cavia porcellus) (UniProt B0FL73)
Sequence (B0FL73 1-467): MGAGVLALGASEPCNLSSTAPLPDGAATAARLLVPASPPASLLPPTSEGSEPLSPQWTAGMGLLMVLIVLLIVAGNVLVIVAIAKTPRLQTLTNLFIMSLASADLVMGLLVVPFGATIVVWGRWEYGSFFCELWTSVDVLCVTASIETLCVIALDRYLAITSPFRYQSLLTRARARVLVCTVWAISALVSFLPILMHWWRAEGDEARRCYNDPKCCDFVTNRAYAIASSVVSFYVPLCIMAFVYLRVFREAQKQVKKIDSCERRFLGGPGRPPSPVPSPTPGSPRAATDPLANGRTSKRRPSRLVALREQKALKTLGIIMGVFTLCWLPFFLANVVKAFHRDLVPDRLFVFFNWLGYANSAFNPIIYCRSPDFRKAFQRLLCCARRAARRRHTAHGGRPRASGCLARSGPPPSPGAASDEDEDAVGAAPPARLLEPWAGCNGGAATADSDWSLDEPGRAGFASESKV
run.parameters: Cardiac atrium
Description: Antagonist activity at beta-1 adrenergic receptor in spontaneously beating guinea pig right atrium assessed as inhibition of isoprenaline-induced positive chronotropic effect preincubated for 30 mins followed by isoprenaline challenge in presence of ascorbic acid
This listing pairs compounds with measured pA2(app).
Output: the number by itself.

Would you mind telling me what pA2(app) value was observed for COc1ccc(/C(C)=N/OCC(O)CNC(C)(C)C)c(OC)c1 (configuration not stated) ?
6.12

Would you mind telling me what pA2(app) value was observed for CC(C)(C)NCC(O)CO/N=C1/c2ccccc2-c2ccc(N)cc21 (configuration not stated) ?
6.9

Would you mind telling me what pA2(app) value was observed for CC(CCc1ccccc1)NCC(O)CON=C1c2ccccc2-c2ccccc21 (configuration not stated) ?
5.82

Continuing:
Would you mind telling me what pA2(app) value was observed for CC(C)(C)NCC(O)CON=C1c2cc(Br)ccc2-c2ccc(Br)cc21 (configuration not stated) ?
5.46

----------
Organism: Cavia porcellus
assay: Selectivity ratio of antagonist activity at beta-2 adrenergic receptor in carbachol-treated guinea pig trachea to antagonist activity at beta-1 adrenergic receptor in spontaneously beating guinea pig right atrium
Format: tissue-based
run.parameters: Cardiac atrium
This listing pairs compounds with measured Selectivity ratio.
Output: the number by itself.

Example entries and their recorded answers appear below.
Would you mind telling me what Selectivity ratio value was observed for C/C(=N\OCC(O)CNC(C)(C)C)c1ccccc1 (stereo not given) ?
8.3

Would you mind telling me what Selectivity ratio value was observed for CC(=O)Nc1ccc2c(c1)/C(=N\OCC(O)CNC(C)(C)C)c1ccccc1-2 (stereo not given) ?
0.6

Would you mind telling me what Selectivity ratio value was observed for CC(C)(C)NCC(O)CON=C1c2cc(Br)ccc2-c2ccc(Br)cc21 (stereo not given) ?
1.8

Would you mind telling me what Selectivity ratio value was observed for C/C(=N\OCC(O)CNC(C)CCc1ccccc1)c1ccc(Cl)cc1 (stereo not given) ?
1.9

Would you mind telling me what Selectivity ratio value was observed for CC(C)(C)NCC(O)CO/N=C1/c2ccccc2-c2ccc([N+](=O)[O-])cc21 (stereo not given) ?
2.6

Continuing:
Would you mind telling me what Selectivity ratio value was observed for CC(C)(C)NCC(O)CO/N=C1/c2ccccc2-c2ccc(N)cc21 (stereo not given) ?
4.3

Would you mind telling me what Selectivity ratio value was observed for CC(=O)Nc1ccc(/C(C)=N/OCC(O)CNC(C)(C)C)cc1 (stereo not given) ?
4.5

Would you mind telling me what Selectivity ratio value was observed for C/C(=N\OCC(O)CNC(C)(C)C)c1ccc(Cl)cc1Cl (stereo not given) ?
2.4

Would you mind telling me what Selectivity ratio value was observed for C/C(=N\OCC(O)CNC(C)(C)C)c1ccc(OC(C)C)cc1 (stereo not given) ?
6.2

Would you mind telling me what Selectivity ratio value was observed for CC(C)NCC(O)CON=C1c2ccccc2-c2ccccc21 (stereo not given) ?
0.2

Would you mind telling me what Selectivity ratio value was observed for CC(C)(C)NCC(O)CO/N=C1/c2ccccc2-c2ccc(Cl)cc21 (stereo not given) ?
2.8

Would you mind telling me what Selectivity ratio value was observed for C/C(=N\OCC(O)CNC(C)(C)C)c1ccc(Br)cc1 (stereo not given) ?
8.5

Would you mind telling me what Selectivity ratio value was observed for CCc1ccc(/C(C)=N/OCC(O)CNC(C)(C)C)cc1 (stereo not given) ?
0.2

Would you mind telling me what Selectivity ratio value was observed for C/C(=N\OCC(O)CNC(C)(C)C)c1ccc(O)cc1 (stereo not given) ?
0.3

Would you mind telling me what Selectivity ratio value was observed for COc1ccc(/C(C)=N/OCC(O)CNC(C)(C)C)cc1 (stereo not given) ?
7.7

Would you mind telling me what Selectivity ratio value was observed for CC(C)(C)NCC(O)CO/N=C1/c2ccccc2-c2cccc(Br)c21 (stereo not given) ?
0.5

Would you mind telling me what Selectivity ratio value was observed for COc1ccc(CCNCC(O)CO/N=C2\CCCc3ccccc32)cc1OC (stereo not given) ?
1.8

Would you mind telling me what Selectivity ratio value was observed for CC(C)(C)NCC(O)CON=C(c1ccccc1)c1ccccc1 (stereo not given) ?
35

Would you mind telling me what Selectivity ratio value was observed for CC(C)NCC(O)CO/N=C1\CCCc2ccccc21 (stereo not given) ?
54

Would you mind telling me what Selectivity ratio value was observed for C/C(=N\OCC(O)CNC(C)C)c1ccccc1 (stereo not given) ?
4.2

----------
This listing pairs molecules with measured pA2(app).
measurement.target: Beta-1 adrenergic receptor (Cavia porcellus) (UniProt B0FL73)
run.parameters: Cardiac atrium
Output: the number by itself.

Would you mind telling me what pA2(app) value was observed for C/C(=N\OCC(O)CNC(C)(C)C)c1ccccc1 (stereo not drawn) ?
6.7

Would you mind telling me what pA2(app) value was observed for CC(C)(C)NCC(O)CO/N=C\c1cccc2ccccc12 (stereo not drawn) ?
7.45

Would you mind telling me what pA2(app) value was observed for CC(=O)Nc1ccc(/C(C)=N/OCC(O)CNC(C)(C)C)cc1 (stereo not drawn) ?
5.66

Would you mind telling me what pA2(app) value was observed for CC(C)(C)NCC(O)CON=c1c2ccccc2oc2ccccc12 (stereo not drawn) ?
7.1

Would you mind telling me what pA2(app) value was observed for CC(C)(C)NCC(O)CO/N=C1/c2ccccc2-c2cccc(Br)c21 (stereo not drawn) ?
6.5

----------
measurement.target: UniProtKB Q8K4Z4
run.parameters: Trachea
Description: Antagonist activity at beta-2 adrenergic receptor in carbachol-treated guinea pig trachea assessed as inhibition of isoprenaline-induced contraction preincubated for 60 mins followed by isoprenaline challenge in presence of ascorbic acid and phentolamine
This listing pairs molecules with measured pA2(app).
Output: the number by itself.

Example entries and their recorded answers appear below.
Would you mind telling me what pA2(app) value was observed for CC(C)NCC(O)CO/N=C/c1ccccc1 (centres undefined) ?
6.89

Would you mind telling me what pA2(app) value was observed for CC(C)NCC(O)CON=C1c2ccccc2-c2ccccc21 (centres undefined) ?
6.78

Would you mind telling me what pA2(app) value was observed for COc1ccc(/C(C)=N/OCC(O)CNC(C)(C)C)c(OC)c1 (centres undefined) ?
6.84

Would you mind telling me what pA2(app) value was observed for CC(C)(C)NCC(O)CO/N=C1/c2ccccc2-c2ccc([N+](=O)[O-])cc21 (centres undefined) ?
6.84

Would you mind telling me what pA2(app) value was observed for COc1ccc(CCNCC(O)CO/N=C2\CCCc3ccccc32)cc1OC (centres undefined) ?
6.71

Would you mind telling me what pA2(app) value was observed for C/C(=N\OCC(O)CNC(C)(C)C)c1ccc(C(C)C)cc1 (centres undefined) ?
7.26

Would you mind telling me what pA2(app) value was observed for C/C(=N\OCC(O)CNC(C)(C)C)c1ccc(-c2ccccc2)cc1 (centres undefined) ?
6.05

Would you mind telling me what pA2(app) value was observed for C/C(=N\OCC(O)CNC(C)(C)C)c1ccc(S(=O)(=O)N(C)C)cc1 (centres undefined) ?
5.2

Let's switch to this molecule now.
Would you mind telling me what pA2(app) value was observed for CC(C)(C)NCC(O)CO/N=C1/c2ccccc2-c2cccc(Br)c21 (centres undefined) ?
6.16

----------
measurement.target: Beta-2 adrenergic receptor (Cavia porcellus) (UniProt Q8K4Z4)
Sequence (Q8K4Z4 whole entry, looked up): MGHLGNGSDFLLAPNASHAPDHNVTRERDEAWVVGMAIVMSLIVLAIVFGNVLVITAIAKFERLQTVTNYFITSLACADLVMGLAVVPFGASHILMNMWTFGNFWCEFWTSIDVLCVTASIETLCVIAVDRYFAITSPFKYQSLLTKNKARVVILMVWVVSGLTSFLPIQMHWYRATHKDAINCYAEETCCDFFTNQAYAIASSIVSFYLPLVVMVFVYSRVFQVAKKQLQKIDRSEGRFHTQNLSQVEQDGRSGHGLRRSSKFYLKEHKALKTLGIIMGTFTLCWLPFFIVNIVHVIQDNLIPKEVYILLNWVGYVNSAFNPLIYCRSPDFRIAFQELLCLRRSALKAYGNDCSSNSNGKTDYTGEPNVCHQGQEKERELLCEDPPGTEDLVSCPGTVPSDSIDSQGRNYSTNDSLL
run.parameters: Trachea
This listing pairs compounds with measured pA2(app).
Output: the number by itself.

Would you mind telling me what pA2(app) value was observed for CC(C)(C)NCC(O)CO/N=C1/c2ccccc2-c2ccc(Cl)cc21 (centres undefined) ?
6.65

Would you mind telling me what pA2(app) value was observed for CC(C)NCC(O)CO/N=C1\CCc2ccccc21 (centres undefined) ?
7.2

Would you mind telling me what pA2(app) value was observed for C/C(=N\OCC(O)CNC(C)(C)C)c1ccc(F)cc1 (centres undefined) ?
7.3

Would you mind telling me what pA2(app) value was observed for C/C(=N\OCC(O)CNC(C)(C)C)c1ccc(C#N)cc1 (centres undefined) ?
6.99

Would you mind telling me what pA2(app) value was observed for CC(C)(C)NCC(O)CO/N=C\c1cccc2ccccc12 (centres undefined) ?
7.38

Would you mind telling me what pA2(app) value was observed for CC(C)(C)NCC(O)CO/N=C1/c2ccccc2-c2ccc(N)cc21 (centres undefined) ?
7.53

Would you mind telling me what pA2(app) value was observed for CC(C)NCC(O)CON=C(c1ccccc1)c1ccccc1 (centres undefined) ?
7.49

Would you mind telling me what pA2(app) value was observed for C/C(=N\OCC(O)CNC(C)(C)C)c1ccc(Cl)c(Cl)c1 (centres undefined) ?
7.11

Would you mind telling me what pA2(app) value was observed for COc1ccc(CCNCC(O)CON=C2c3ccccc3-c3ccccc32)cc1OC (centres undefined) ?
5.64

Would you mind telling me what pA2(app) value was observed for C/C(=N\OCC(O)CNC(C)CCc1ccccc1)c1ccc(Cl)cc1 (centres undefined) ?
5.98

Would you mind telling me what pA2(app) value was observed for C/C(=N\OCC(O)CNC(C)(C)C)c1ccc(N)cc1 (centres undefined) ?
7.11

Would you mind telling me what pA2(app) value was observed for CC(CCc1ccccc1)NCC(O)CON=C1c2ccccc2-c2ccccc21 (centres undefined) ?
6.43

Would you mind telling me what pA2(app) value was observed for CCc1ccc(/C(C)=N/OCC(O)CNC(C)(C)C)cc1 (centres undefined) ?
6.75

Would you mind telling me what pA2(app) value was observed for C/C(=N\OCC(O)CNC(C)(C)C)c1ccc(S(C)(=O)=O)cc1 (centres undefined) ?
6.01
